test system: B16F1 cells; assay: homologous competitive binding assay on fixed B16F1 cells; design: species or system murine; details: homologous competition with unlabeled 4-FEBZA, 1 h, read-out: IC50, second of two distinct binding sites
READOUT: pIC50
Numbers only, as −log10 of the molar value.

**Q:** // pIC50 lookup, key: CCN(CC)CCNC(=O)c1ccc(OCC[18F])cc1 [4-[^18F]FEBZA]
**A:** 5.89
